- tested_on: UniProtKB P06870
- Sequence (P06870 25-262): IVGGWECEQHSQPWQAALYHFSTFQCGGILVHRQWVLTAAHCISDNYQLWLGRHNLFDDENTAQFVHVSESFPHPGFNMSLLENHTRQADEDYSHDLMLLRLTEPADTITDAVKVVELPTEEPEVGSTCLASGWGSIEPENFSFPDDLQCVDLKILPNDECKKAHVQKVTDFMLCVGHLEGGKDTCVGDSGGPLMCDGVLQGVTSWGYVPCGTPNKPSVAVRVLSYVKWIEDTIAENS
measured_property: pKi
Remember, pKi is on a log scale: it is -log10 of the molar concentration.

So, CC(C)S(=O)(=O)c1ccc2cc1CN(C)C(=O)[C@H](Nc1cc(F)c3c(N)nccc3c1)c1ccc(cc1)CCOC(=O)N2 [Comparator 1, reference compound] ? Its pKi was 5.48

====

- tested_on: human FVIIa (Homo sapiens (Human), UniProt P08709)
- Sequence (P08709 61-212): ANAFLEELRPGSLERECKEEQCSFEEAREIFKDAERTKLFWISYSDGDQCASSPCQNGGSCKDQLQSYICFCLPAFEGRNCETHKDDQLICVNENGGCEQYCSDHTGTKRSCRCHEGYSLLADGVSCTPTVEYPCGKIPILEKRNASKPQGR
- Sequence (P08709 213-466): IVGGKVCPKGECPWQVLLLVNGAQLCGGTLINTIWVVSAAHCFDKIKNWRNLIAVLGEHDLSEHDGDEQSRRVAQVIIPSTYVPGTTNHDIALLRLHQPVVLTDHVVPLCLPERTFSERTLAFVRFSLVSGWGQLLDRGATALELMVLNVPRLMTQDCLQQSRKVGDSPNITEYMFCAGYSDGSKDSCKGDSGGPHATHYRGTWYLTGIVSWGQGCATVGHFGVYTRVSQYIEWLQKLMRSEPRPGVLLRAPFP
- Sequence (P13726 33-295 partner): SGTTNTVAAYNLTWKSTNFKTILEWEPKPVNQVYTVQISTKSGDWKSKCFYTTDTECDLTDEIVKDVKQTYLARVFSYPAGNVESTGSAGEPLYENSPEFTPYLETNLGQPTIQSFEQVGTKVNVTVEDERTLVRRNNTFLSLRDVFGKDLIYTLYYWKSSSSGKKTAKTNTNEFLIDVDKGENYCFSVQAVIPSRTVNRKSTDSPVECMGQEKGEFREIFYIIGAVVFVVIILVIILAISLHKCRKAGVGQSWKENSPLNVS
- test_name: FVIIa Ki (37° C.), FVIIa-Xase assay
- Assay type: biochemical
measured_property: pKi
By convention, pKi is the negative base-10 log of a molar concentration.

Case `Cc1cc2ccc1[C@@H](C)COC(=O)Nc1cc(F)c(OCC3(C#N)CC3)c(c1)CN(C)C(=O)[C@@H]2Nc1ccc2c(N)nccc2c1.O=C(O)C(F)(F)F` , human FVIIa (Homo sapiens (Human), UniProt P08709), pKi recorded as 9.36

====

- tested_on: human FVIIa (Homo sapiens (Human))
- test_name: FVIIa Ki (37° C.), FVIIa-Xase assay
- Type: biochemical
- test_settings: selectivity ratio, tissue kallikrein (HK1) vs FVIIa
Class (required): determined from Ki(HK1)/Ki(FVIIa); valid ranges are 1 (below 400), 2 (400 to below 2000), 3 (2000 or more)

INPUT: Note: place this compound into its band. Item: CCS(=O)(=O)c1ccc2cc1CN(C)C(=O)[C@H](Nc1ccc3c(N)ncc(F)c3c1)c1ccc(c(C)c1)[C@@H](C)COC(=O)N2.O=C(O)C(F)(F)F [Example 3]
OUTPUT: 1

INPUT: Assign a bin to Cc1cc2ccc1[C@@H](C)COC(=O)Nc1cc(F)c(S(=O)(=O)C(C)C)c(c1)CN(C)C(=O)[C@@H]2Nc1cc2ccnc(N)c2cc1F.O=C(O)C(F)(F)F [Example 34]
OUTPUT: 3

INPUT: Returns: class label. Input: CCS(=O)(=O)c1ccc2cc1CNC(=O)[C@H](Nc1ccc3c(N)nccc3c1)c1ccc(cc1)CCOC(=O)N2 [Comparator 2, reference compound]
OUTPUT: 1

INPUT: Bin this entry: Cc1cc2ccc1[C@@H](C)COC(=O)Nc1cc(F)c(OCCN3CCCC3=O)c(c1)CN(C)C(=O)[C@@H]2Nc1ccc2c(N)nccc2c1.O=C(O)C(F)(F)F [Example 35]
OUTPUT: 2

INPUT: Consider Cc1cc2cc(C)c1CC(O)CC(=O)Nc1ccc(S(=O)(=O)C3CC3)c(c1)CN(C)C(=O)[C@@H]2Nc1ccc2c(N)ncc(F)c2c1.O=C(O)C(F)(F)F (stereo partly shown) [Example 2] . To which Ki(HK1)/Ki(FVIIa) class does it belong?
OUTPUT: 2

Further cases:
INPUT: Hi there! Could you help me figure out the category for Cc1cc2ccc1[C@@H](C)COC(=O)Nc1cc(F)c(O[C@@H]3CCOC3)c(c1)CN(C)C(=O)[C@@H]2Nc1ccc2c(N)nccc2c1.O=C(O)C(F)(F)F [Example 38] please?
OUTPUT: 3

INPUT: # classify by Ki(HK1)/Ki(FVIIa) band: COC[C@H](C)S(=O)(=O)c1ccc2cc1CN(C)C(=O)[C@H](Nc1ccc3c(N)ncc(F)c3c1)c1ccc(c(C)c1)[C@@H](C)COC(=O)N2.O=C(O)C(F)(F)F [Example 6]
OUTPUT: 1

INPUT: Note: place this compound into its band. Item: Cc1cc2ccc1[C@@H](C)COC(=O)Nc1cc(F)c(S(=O)(=O)C3CC3)c(c1)CN(C)C(=O)[C@@H]2Nc1cc2ccnc(N)c2cc1F.O=C(O)C(F)(F)F [Example 29]
OUTPUT: 3

INPUT: Class label required: Cc1cc2ccc1[C@@H](C)COC(=O)Nc1cc(F)c(O[C@@H](C)CO)c(c1)CN(C)C(=O)[C@@H]2Nc1ccc2c(N)nccc2c1.O=C(O)C(F)(F)F [Example 33]
OUTPUT: 1

INPUT: Could you place Cc1cc2ccc1[C@@H](C)COC(=O)Nc1cc(F)c(O[C@@H]3COC[C@@H]3O)c(c1)CN(C)C(=O)[C@@H]2Nc1ccc2c(N)nccc2c1.O=C(O)C(F)(F)F [Example 27] in its proper category? Many thanks.
OUTPUT: 2
